Recorded values, source BindingDB's records for doi:10.1021/jm000022w.

Listed below: IC50 values for each entry.
assay: Inhibition of platelet aggregation
Non-standard residues stand in square brackets, D forms with d. Residues, ends and D or L forms follow the SMILES beside them. ξ: configuration not given here. ξR = N=C(N)NCCCC(N)C(=O)O

{"molecule": "CC(=O)NC(CCCNC(=N)N)C(=O)NCC(=O)N[C@@H](CC(=O)O)C(=O)N[C@H](C(N)=O)C(C)C (some centres not stated) (Ac-[ξR]GDV-NH2)", "display-unit": "µM", "IC50": 32}
{"molecule": "COc1ccc(C[C@H](NC(=O)[C@H](CC(=O)O)NC(=O)CNC(=O)[C@@H](N)CCCNC(=N)N)C(N)=O)cc1 [SC-46749] (H-RGDY(Me)-NH2)", "display-unit": "µM", "IC50": 32}

###

experiment: Inhibition of alpha IIb beta-3 integrin mediated platelet aggregation

{"given-smiles": "C[C@H](CC(=O)O)NC(=O)CN1CCC[C@@H](CCC2CCNCC2)C1=O", "IC50 (nM)": 23}

###

experiment: Inhibition of human platelet aggregation in platelet rich plasma

{"given-smiles": "O=C(NC[C@H](NS(=O)(=O)c1ccccc1)C(=O)O)c1cnc(N2CCN(C3CCNCC3)CC2)s1", "IC50 [nM]": 3.5}

###

experiment: inhibition of platelet aggregation in human platelet rich plasma
pIC50: −log10 of the molar value.
measured-parameter: pIC50

{"given-smiles": "CCOC(=O)COC1CCN(C(=O)[C@H](C)NC(=O)c2ccc(C(=N)NO)cc2)CC1", "measured-parameter": "pIC50", "value-measured": 7.42}

###

assay: Inhibition of canine platelet aggregation
pIC50: −log10 of the molar value. Positions of bridges follow the written chain, without caps; N, C: chain ends. Non-standard residues stand in square brackets, D forms with d. Residues, ends and D or L forms follow the SMILES beside them. NMeR = CN[C@@H](CCCNC(=N)N)C(=O)O
measured-parameter: pIC50

{"molecule": "CC(=O)N[C@H]1CSSC[C@@H](C(N)=O)NC(=O)[C@H](CC(=O)O)NC(=O)CNC(=O)[C@H](CCCNC(=N)N)N(C)C1=O (Ac-C[NMeR]GDC-NH2; disulfide 1-5)", "value-measured": 7.05}

###

experiment: Inhibition of alpha IIb beta-3 integrin mediated platelet aggregation

{"given-smiles": "CCOC(=O)CC1CCN(C(=O)C(C)(C)[C@@H](CC)NC(=O)c2ccc(C(=N)N3CCSC3)cc2F)CC1", "IC50 / nM": 45}

###

experiment: Inhibition of human platelet aggregation
measured-parameter: IC50 (nM)

{"given-smiles": "CC(C)CC(=O)N[C@@H](CCCCNC(=O)c1ccc(C(=N)N)cc1)CC(=O)O", "display-unit": "nM", "value-measured": 15}

###

Listed below: IC50 values for each entry.
assay: Inhibition of ADP-induced platelet aggregation in human platelet rich plasma
measured-parameter: IC50 (nM)

{"compound": "CN(C(=O)c1ccc2c(c1)CN(CCc1ccccc1)C(=O)C(CC(=O)O)N2)c1ccc(C(=N)N)cc1 (configuration not stated)", "measured-parameter": "IC50", "value-measured": 160}
{"compound": "CN(C(=O)c1ccc2c(c1)NC(CC(=O)O)C(=O)N(CCc1ccccc1)C2)c1ccc(C(=N)N)cc1 (configuration not stated)", "measured-parameter": "IC50", "value-measured": 65}

###

test: Inhibition of […] and platelet aggregation in human platelet rich plasma

{"given-smiles": "N=C(N)c1ccc(N2CCN(c3ccc(OCC(=O)O)cc3)CC2)cc1", "IC50 (nM)": 20}
{"given-smiles": "[H]/N=C(/N)c1ccc(N2CCN(C3CCN(CC(=O)O)CC3)CC2)cc1", "IC50 (nM)": 59}
{"given-smiles": "C[C@@H](COc1ccc(N2CCN(c3ccncc3)CC2)cc1)CC(=O)O", "IC50 (nM)": 50}
